For each entry below, report its selectivity ratio value.
Test: Selectivity index, ratio of ED50 for human KB cells to ED50 for Plasmodium falciparum W2
Type: toxicity, cell-based
Details: read-out: Ratio ED50
Answers are plain numbers.

O[C@H]1[C@H]2c3cc4c(cc3CN3CCC(=C[C@@H]1O)[C@H]23)OCO4; 1
CO[C@@H]1C[C@H]2N3CC[C@@]2(c2cc4c(cc2C3)OCO4)[C@H]2O[C@@H]12; 3
OC(c1cc(C(F)(F)F)nc2c(C(F)(F)F)cccc12)C1CCCCN1 (stereo unspecified); 2190

// next item, selectivity ratio requested
Query string: Find the measured selectivity ratio of "CO[C@H]1C=C[C@@]23c4cc5c(cc4CN(C[C@@H]2O)[C@H]3C1)OCO5" and report it.
Result string: 0.4

* * *

Tested on: ZR-75-1
Experiment: Cytotoxicity against human ZR-75-1 cells after 3 days by sulforhodamine B assay
Format: functional
Settings: ZR-75-1, 72 h, read-out: ED50 (the source's name)
quantity: EC50 (µg/mL)
Numbers only, in µg/mL.

Consider the following illustrative entries.
CO[C@H]1C=C[C@@]23c4cc5c(cc4CN(C[C@@H]2O)[C@H]3C1)OCO5; 0.8
O[C@H]1[C@H]2c3cc4c(cc3CN3CCC(=C[C@@H]1O)[C@H]23)OCO4; 0.9

// next item, EC50 requested
Query string: Find the measured EC50 of "CO[C@@H]1C[C@H]2N3CC[C@@]2(c2cc4c(cc2C3)OCO4)[C@H]2O[C@@H]12" and report it.
Result string: 1.8

* * *

For each entry below, report its EC50 value.
Test: Cytotoxicity against human Col1 cells after 3 days by sulforhodamine B assay
Assay type: functional
Conditions: Col1, 72 h, read-out: ED50 (the source's name)

COC1C=C[C@@]23CCN(Cc4cc5c(cc42)OCO5)[C@@H]3C1 (stereo not given in full); > 20 µg/mL
CO[C@H]1C=C[C@@]23c4cc5c(cc4CN(C[C@@H]2O)[C@H]3C1)OCO5; 1 µg/mL
O[C@@H]1CC[C@H]2N3CC[C@@]2(c2cc4c(cc2C3)OCO4)[C@@H]1O; > 20 µg/mL

For every listed record, write down its EC50.
1. O[C@H]1[C@H]2c3cc4c(cc3CN3CCC(=C[C@@H]1O)[C@H]23)OCO4
2. CO[C@@H]1C[C@H]2N3CC[C@@]2(c2cc4c(cc2C3)OCO4)[C@H]2O[C@@H]12

Result string:
["0.8 µg/mL", "2.4 µg/mL"]

* * *

System: HT-1080
Assay: Cytotoxicity against human HT1080 cells after 3 days by sulforhodamine B assay
Type: functional
Details: HT-1080, 72 h, read-out: ED50 (the source's name)
quantity: EC50

CO[C@H]1C=C[C@@]23c4cc5c(cc4CN(C[C@@H]2O)[C@H]3C1)OCO5; 1.3 µg/mL

For every listed record, write down its EC50.
1. O[C@H]1[C@H]2c3cc4c(cc3CN3CCC(=C[C@@H]1O)[C@H]23)OCO4 [LYCORINE]
2. CO[C@@H]1C[C@H]2N3CC[C@@]2(c2cc4c(cc2C3)OCO4)[C@H]2O[C@@H]12
3. O[C@@H]1CC[C@H]2N3CC[C@@]2(c2cc4c(cc2C3)OCO4)[C@@H]1O
4. COC1C=C[C@@]23CCN(Cc4cc5c(cc42)OCO5)[C@@H]3C1 (stereo not given in full)

Result string:
0.5 µg/mL
1.2 µg/mL
> 20 µg/mL
> 20 µg/mL
